target: Replicase polyprotein 1ab (Severe acute respiratory syndrome coronavirus 2); assay: Binding affinity to SARS-CoV-2 3CL protease assessed as dissociation constant by SPR analysis
pKd: −log10 of the molar value.
In this section we review reported pKd values for a set of compounds.

- compound: "CCC(C(=O)Nc1cc(NC2CNC2)ccc1C)n1cc(F)cc2nc(SCc3ccc(F)cc3)nc1-2 (racemic)"
  pKd: 6.57
- compound: "CCC(C(=O)Nc1cc(NC2CCNC2)ccc1C)n1cccc2nc(SCc3ccc(F)cc3)nc1-2 (racemic)"
  pKd: 6.60
- compound: "CCC(C(=O)Nc1cc(NC2CCNC2)ccc1C)n1cc(Cl)cc2nc(SCc3ccc(F)cc3)nc1-2 (racemic)"
  pKd: 7.00

---

molecular target: Replicase polyprotein 1ab (Severe acute respiratory syndrome coronavirus 2); test: Inhibition of SARS-CoV-2 Main protease using Dabcyl-KLSAVLQSGFRKM-Edans-NH2 as substrate incubated for 30 mins by FRET based enzymatic assay
pIC50: −log10 of the molar value.
quantity-measured: pIC50

- input-smiles: "Cc1ccc(OCCN(C)C)cc1C(=O)N[C@H](C)c1cc(-c2cnn(C(C)C)c2)cc(-c2cnn(C(F)F)c2)c1"
  numeric-readout: 6.80
- input-smiles: "COCCn1cc(-c2cc(-c3cnn(CC(F)F)c3)cc([C@@H](C)NC(=O)c3cc(OCCN(C)C)ccc3C)c2)cn1"
  numeric-readout: 6.70
- input-smiles: "Cc1ccc(OCCN(C)C)cc1C(=O)N[C@H](C)c1cc(-c2cnn(CCO)c2)cc(-c2cccs2)c1"
  numeric-readout: 6.96
- input-smiles: "Cc1ccc(OCCN(C)C)cc1C(=O)N[C@H](C)c1cc(-c2cnn(CCO)c2)cc(-c2cnn(CCN(C)C)c2)c1"
  numeric-readout: 6.85
- input-smiles: "Cc1ccc(OCCN(C)C)cc1C(=O)N[C@H](C)c1cc(-c2ccc(N3CCOCC3)nc2)cc(-c2cnn(C)c2)c1"
  numeric-readout: 7.10
- input-smiles: "Cc1ccc(OCCN(C)C)cc1C(=O)N[C@H](C)c1cc(-c2ccn(C)n2)cc(-c2ccn(C)n2)c1"
  numeric-readout: 6.85
- input-smiles: "COCCn1cc(-c2cc(-c3cccs3)cc([C@@H](C)NC(=O)c3cc(OCCN(C)C)ccc3C)c2)cn1"
  numeric-readout: 6.96
